Source of measurements: patent US3984555A

Test system: defence reaction after the thermal stimulation of the tail of the mouse
Experiment: Analgesic effect on the mouse: delay in defence reaction after thermal stimulation of the tail (Table IV)
Type: in vivo
Conditions: po; mouse; per os; 25% delay; read-out: Delay in the defence reaction after the thermal stimulation of the tail of the mouse by 25% by mg/kg per os
// returns not fulfilled unless ED25 is strictly below 2 mg/kg, in which case fulfilled

Use these answered entries as a reference point.
COc1cc2nc(CCN3CCN(c4ccc(F)cc4)CC3)[nH]c(=O)c2cc1OC : not fulfilled
COc1cc2nc(CCN3CCN(c4ccccc4C)CC3)[nH]c(=O)c2cc1OC : fulfilled
COc1cc2nc(CN3CCN(c4ccccc4OC)CC3)[nH]c(=O)c2cc1OC : not fulfilled
COc1cc2nc(CCN3CCN(c4ccc(C)cc4)CC3)[nH]c(=O)c2cc1OC : not fulfilled
COc1cc2nc(CCN3CCN(c4ccccc4)CC3)[nH]c(=O)c2cc1OC : fulfilled

Query string: Please let me know if COc1cc2nc(CCN3CCN(c4cccc(C(F)(F)F)c4)CC3)[nH]c(=O)c2cc1OC shows ED25 below 2 mg/kg.
Result string: fulfilled

Query string: Please let me know if COc1cc2nc(CCN3CCN(c4ccccc4Cl)CC3)[nH]c(=O)c2cc1OC shows ED25 below 2 mg/kg.
Result string: not fulfilled

Query string: Please let me know if COc1cc2nc(CCN3CCN(c4cccc(F)c4)CC3)[nH]c(=O)c2cc1OC shows ED25 below 2 mg/kg.
Result string: fulfilled

Query string: Please let me know if COc1cc2nc(CCN3CCN(c4cccc(Cl)c4)CC3)[nH]c(=O)c2cc1OC shows ED25 below 2 mg/kg.
Result string: fulfilled

Query string: Please let me know if Cc1c(N(C)C)c(=O)n(-c2ccccc2)n1C [Aminophenazone, reference compound] shows ED25 below 2 mg/kg.
Result string: not fulfilled

Query string: Please let me know if COc1cc2nc(CCN3CCN(c4ccccc4OC)CC3)[nH]c(=O)c2cc1OC shows ED25 below 2 mg/kg.
Result string: fulfilled
